Tested on: RS4; 11
Test: Cell viability assay (MTS) in RS4; 11 cells
Format: cell-based
Conditions: Homo sapiens, RS4-11; Table 2; 48 hr; MTS; read-out: Anti-Cancer Activity IC50 (48 hr) RS4; 11
Description: Acute lymphoblastic leukemia cells (MOLT-4 and RS4; 11) were incubated with increasing concentrations of Bcl-xL degraders for 48 h. Cell viability was measured by tetrazolium-based MTS assay.
pIC50: −log10 of the molar value.
Measured Metric: pIC50

- Cc1ncsc1-c1ccc([C@H](C)NC(=O)[C@@H]2C[C@@H](O)CN2C(=O)[C@@H](NC(=O)COCCOCc2cn(CCCC(=O)NCC3(C)CCC(c4ccc(Cl)cc4)=C(CN4CCN(c5ccc(C(=O)NS(=O)(=O)c6ccc(N[C@H](CCN7CCOCC7)CSc7ccccc7)c(S(=O)(=O)C(F)(F)F)c6)cc5)CC4)C3)nn2)C(C)(C)C)cc1 (stereo partly drawn) [Compound 23]: 5.00 to 6.30
- Cc1ncsc1-c1ccc([C@H](C)NC(=O)[C@@H]2C[C@@H](O)CN2C(=O)[C@@H](NC(=O)COCCOCc2cn(CC3(C)CCC(c4ccc(Cl)cc4)=C(CN4CCN(c5ccc(C(=O)NS(=O)(=O)c6ccc(N[C@H](CCN7CCOCC7)CSc7ccccc7)c(S(=O)(=O)C(F)(F)F)c6)cc5)CC4)C3)nn2)C(C)(C)C)cc1 (stereo partly drawn) [Compound 21]: 7.00 to 7.70
- Cc1ncsc1-c1ccc([C@H](C)NC(=O)[C@@H]2C[C@@H](O)CN2C(=O)[C@@H](NC(=O)CCCCCCC(=O)N2CCN(C[C@]3(C)CCC(c4ccc(Cl)cc4)=C(CN4CCN(c5ccc(C(=O)NS(=O)(=O)c6ccc(N[C@H](CCN(C)CCO)CSc7ccccc7)c([N+](=O)[O-])c6)cc5)CC4)C3)CC2)C(C)(C)C)cc1 [Compound 42]: > 7.70

* * *

# IC50 per entry
tested on: RS4; 11; assay: Cell viability assay (MTS) in RS4; 11 cells; type: cell-based; conditions: Homo sapiens, RS4-11; Table 2; 48 hr; MTS; read-out: Anti-Cancer Activity IC50 (48 hr) RS4; 11
Measured Metric: IC50

- Cc1ncsc1-c1ccc([C@H](C)NC(=O)[C@@H]2C[C@@H](O)CN2C(=O)[C@@H](NC(=O)CCCCCCC(=O)N2CCN(C[C@]3(C)CCC(c4ccc(Cl)cc4)=C(CN4CCN(c5ccc(C(=O)NS(=O)(=O)c6ccc(N[C@H](CCN7CCCOCC7)CSc7ccccc7)c([N+](=O)[O-])c6)cc5)CC4)C3)CC2)C(C)(C)C)cc1 [Compound 55]: < 20 nM
- Cc1ncsc1-c1ccc([C@H](C)NC(=O)[C@@H]2C[C@@H](O)CN2C(=O)[C@@H](NC(=O)CCCNC(=O)c2ccc(N3CCN(CC4(C)CCC(c5ccc(Cl)cc5)=C(CN5CCN(c6ccc(C(=O)NS(=O)(=O)c7ccc(N[C@H](CCN8CCOCC8)CSc8ccccc8)c(S(=O)(=O)C(F)(F)F)c7)cc6)CC5)C4)CC3)nc2)C(C)(C)C)cc1 (stereo partly shown) [Compound 2]: 20 to 100 nM
- Cc1ncsc1-c1ccc([C@H](C)NC(=O)[C@@H]2C[C@@H](O)CN2C(=O)[C@@H](NC(=O)CCCCCCC(=O)N2CCC(C3CCN(CC4(C)CCC(c5ccc(Cl)cc5)=C(CN5CCN(c6ccc(C(=O)NS(=O)(=O)c7ccc(N[C@H](CCN8C[C@H]9C[C@@H]8CO9)CSc8ccccc8)c(S(=O)(=O)C(F)(F)F)c7)cc6)CC5)C4)CC3)CC2)C(C)(C)C)cc1 (stereo partly shown) [Compound 70]: < 20 nM
- Cc1ncsc1-c1ccc([C@H](C)NC(=O)[C@@H]2C[C@@H](O)CN2C(=O)[C@@H](NC(=O)CNC(=O)c2ccc(N3CCN(CCN(C)CC4(C)CCC(c5ccc(Cl)cc5)=C(CN5CCN(c6ccc(C(=O)NS(=O)(=O)c7ccc(N[C@H](CCN8CCOCC8)CSc8ccccc8)c(S(=O)(=O)C(F)(F)F)c7)cc6)CC5)C4)CC3)cc2)C(C)(C)C)cc1 (stereo partly shown) [Compound 13]: 100 to 500 nM
